Kindly supply the reported viability, T/C values for the records listed here.
# Tested on: 616215-338-R-J1-PDC tumor spheroids, viability
# Measurement description: Anticancer human tumor 616215-338-R-J1-PDC patient-derived colon adenocarcinoma cell line growth inhibition [GQUAD]
# Condition parameters: second compound 3.16 µM; first compound 1 µM; stronger effect = lower value; spheroids with HUVEC and MSC
# Source text: DNA G-quadruplex Stabilizer Agents in Combinations in Complex Spheroids A high-throughput screen of multi-cell type tumor spheroids was designed to identify active combinations of DNA G-quadruplex stabilizer agents and targeted small molecules. […] Compounds. […] If the clinical Cmax for an agent had not been determined, the highest concentration tested was 10 microM. […]
Express your answer in %, writing the number without its unit.

// assay 616215-338-R-J1-PDC tumor spheroids, viability, entry COc1cccc2c1C(=O)c1c(O)c3c(c(O)c1C2=O)CC(O)(C(=O)CO)CC3OC1CC(N)C(O)C(C)O1 (stereo not drawn) + Cc1cnc(CNC(=O)c2c(=O)c3ccc(N4CCCN(C)CC4)nc3n3c2sc2ccccc23)cn1 , viability, T/C value = 16.4

// assay 616215-338-R-J1-PDC tumor spheroids, viability, entry COc1ccc([C@@H](O)c2cc(-c3ncnc4cc(N5CCOCC5)ccc34)c(F)cc2Cl)nn1 + CN(C)c1ccc(Nc2c3ccc(NC(=O)CCN4CCCC4)cc3nc3cc(NC(=O)CCN4CCCC4)ccc23)cc1 , viability, T/C value = 101

// assay 616215-338-R-J1-PDC tumor spheroids, viability, entry CCCS(=O)(=O)Nc1ccc(F)c(C(=O)c2c[nH]c3ncc(-c4ccc(Cl)cc4)cc23)c1F + CN(C)c1ccc(Nc2c3ccc(NC(=O)CCN4CCCC4)cc3nc3cc(NC(=O)CCN4CCCC4)ccc23)cc1 , viability, T/C value = 85.4

* * *

# System: 616215-338-R-J1-PDC tumor spheroids, viability
# Measurement description: Anticancer human tumor 616215-338-R-J1-PDC cell line growth inhibition [GQUAD];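 note: spheroids exposed to agents for 7 days before readout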
# Condition parameters: curve of first compound; second compound 0.316 µM; spheroids with HUVEC and MSC
Kindly supply the reported IC50 values for the records listed here.

What the record says about CC(=O)O[C@H]1C(=O)[C@@]2(C)[C@H]([C@H](OC(=O)c3ccccc3)[C@]3(O)C[C@H](OC(=O)[C@H](O)[C@@H](NC(=O)c4ccccc4)c4ccccc4)C(C)=C1C3(C)C)[C@]1(OC(C)=O)CO[C@@H]1C[C@@H]2O + CN(C)c1ccc(Nc2c3ccc(NC(=O)CCN4CCCC4)cc3nc3cc(NC(=O)CCN4CCCC4)ccc23)cc1 : IC50 is < 31.6 nM

What the record says about Nc1ccn(C2OC(CO)C(O)C2(F)F)c(=O)n1 (stereo not given) + Cc1cnc(CNC(=O)c2c(=O)c3ccc(N4CCCN(C)CC4)nc3n3c2sc2ccccc23)cn1 : IC50 is < 31.6 nM

What the record says about Cc1[nH]c2ccccc2c1CCNCc1ccc(/C=C/C(=O)NO)cc1 + CN(C)c1ccc(Nc2c3ccc(NC(=O)CCN4CCCC4)cc3nc3cc(NC(=O)CCN4CCCC4)ccc23)cc1 : IC50 is 134 nM

What the record says about C=CCn1c(=O)c2cnc(Nc3ccc(N4CCN(C)CC4)cc3)nc2n1-c1cccc(C(C)(C)O)n1 + Cc1[nH]c2ccc(F)cc2c1-c1nc2c3cccnc3c3ncccc3c2[nH]1 : IC50 is 315 nM

What the record says about CC1COCCN1c1cc(-c2ccnn2C)c2ccnc(-c3ccn[nH]3)c2n1 (stereo not given) + Cc1[nH]c2ccc(F)cc2c1-c1nc2c3cccnc3c3ncccc3c2[nH]1 : IC50 is 185 nM
